Target: recombinant human arginase 2 (hARG2) (Homo sapiens, UniProt P78540)
Construct: made in house; host or cells: E. coli
Sequence (P78540 23-354): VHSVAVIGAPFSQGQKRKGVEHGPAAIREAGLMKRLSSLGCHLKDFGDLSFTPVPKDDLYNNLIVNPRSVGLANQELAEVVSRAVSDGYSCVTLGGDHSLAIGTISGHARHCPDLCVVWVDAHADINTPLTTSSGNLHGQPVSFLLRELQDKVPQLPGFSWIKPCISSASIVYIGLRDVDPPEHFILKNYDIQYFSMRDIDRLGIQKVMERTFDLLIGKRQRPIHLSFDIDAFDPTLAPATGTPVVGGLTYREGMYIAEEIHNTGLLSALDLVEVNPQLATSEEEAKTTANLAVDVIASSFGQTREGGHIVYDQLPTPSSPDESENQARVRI
Assay: Human arginase inhibition assay (colorimetric urea detection), arginase 2
Format: biochemical
Settings: IC50 class; hydrochloride salts; 1 h at 37° C., pH 7.4, 20 mM L-arginine, 200 μM MnCl2; read-out: Activity Class (ARG II)
Structures can show the parent of a compound that is named as a salt.
The compounds listed here are annotated with their IC50.

COMPOUND	IC50
N[C@@H](Cc1ccc(O)cc1)C(=O)NC[C@@H]1CC[C@@H](CCB(O)O)C[C@]1(N)C(=O)O [Example 14, dihydrochloride]	> 300 nM
NCCCC[C@H](N)C(=O)NC[C@@H]1CC[C@@H](CCB(O)O)C[C@]1(N)C(=O)O [Example 9, trihydrochloride]	> 300 nM
CC[C@H](C)[C@H](N)C(=O)NC[C@@H]1CC[C@@H](CCB(O)O)C[C@]1(N)C(=O)O [Example 10, dihydrochloride]	> 300 nM

Provenance of the data: patent US12612420B2
